Cited source for all entries: PubChem BioAssay AID1851

molecular target: Cytochrome P450 2C9 (Homo sapiens) (UniProt P11712); experiment: Cytochrome panel assay with activity outcomes; conditions: recombinant CYP, pro-luciferin dealkylation, luminescence, p450-cyp2c9; series mostly up to 57.1 µM; on activity, negative = inhibition: on the % scale 0 is the no-effect control and ±100 the full control effect
Sequence (P11712 whole entry, looked up): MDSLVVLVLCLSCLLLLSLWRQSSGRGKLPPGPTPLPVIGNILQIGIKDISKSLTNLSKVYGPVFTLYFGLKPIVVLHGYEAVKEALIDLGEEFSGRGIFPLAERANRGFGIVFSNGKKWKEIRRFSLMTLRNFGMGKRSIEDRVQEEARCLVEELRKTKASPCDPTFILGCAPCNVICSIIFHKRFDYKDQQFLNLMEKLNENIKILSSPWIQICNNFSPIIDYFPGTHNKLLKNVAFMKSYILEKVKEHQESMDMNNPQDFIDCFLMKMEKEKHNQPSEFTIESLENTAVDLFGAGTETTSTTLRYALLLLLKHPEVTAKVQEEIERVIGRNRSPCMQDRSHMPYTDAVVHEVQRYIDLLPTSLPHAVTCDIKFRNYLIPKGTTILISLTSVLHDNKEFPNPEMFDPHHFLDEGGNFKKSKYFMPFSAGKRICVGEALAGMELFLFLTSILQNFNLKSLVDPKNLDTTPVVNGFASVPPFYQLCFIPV
About 4,000 (25%) of roughly 16,000 compounds were called active. Roughly 26% stayed inconclusive and do not appear here. These entries were drawn from the full list.
Metric name: activity, negative = inhibition

Previously resolved entries follow.
Query smiles	Experimental target	activity, negative = inhibition
OCCN(CO)CO	Cytochrome P450 2C9 (Homo sapiens) (UniProt P11712)	-10.4% [at 11.4 µM] (inactive)
Cc1[nH]c(N)nc(=S)c1CCCNc1ccccc1	Cytochrome P450 2C9 (Homo sapiens) (UniProt P11712)	-9.42% [at 11.4 µM] (inactive)
CCOc1ccc2nc3cc(N=Nc4ccc(N)nc4N)ccc3c(N)c2c1	Cytochrome P450 2C9 (Homo sapiens) (UniProt P11712)	1.7% [at 11.4 µM] (inactive)
N#C[C@H]1CN[C@H](N)N[C@@H]1N	Cytochrome P450 2C9 (Homo sapiens) (UniProt P11712)	-4.64% [at 11.4 µM] (inactive)
N#Cc1cccc(-c2nccc(NCc3cccs3)n2)c1	Cytochrome P450 2C9 (Homo sapiens) (UniProt P11712)	5.43% [at 2.29 µM] (inactive)
O=C1[C@H]2[C@H]3[C@H](O)[C@H](O)C/C(=N/OC[C@@H](O)COCc4ccco4)[C@@H]3CC[C@@H]2C(=O)N1Cc1ccc2c(c1)OCO2	Cytochrome P450 2C9 (Homo sapiens) (UniProt P11712)	3.23% [at 11.4 µM] (inactive)
CCOC(=O)c1c2c(n3ccccc13)C(=O)c1ccccc1C2=O	Cytochrome P450 2C9 (Homo sapiens) (UniProt P11712)	-20.1% [at 11.4 µM] (inactive)
NCCNc1ncnc2ccc(Cl)cc12	Cytochrome P450 2C9 (Homo sapiens) (UniProt P11712)	6.44% [at 11.4 µM] (inactive)
CCN1C(=O)[C@H]2[C@H]3[C@H](O)[C@H](O)C/C(=N/OCC[C@H]4C=C[C@H](OC(C)=O)[C@@H](COC(C)=O)O4)[C@@H]3CC[C@@H]2C1=O	Cytochrome P450 2C9 (Homo sapiens) (UniProt P11712)	-15% [at 11.4 µM] (inactive)
CN1CCN(c2nc3c(c(=O)n(C)c(=O)n3C)n2C)CC1	Cytochrome P450 2C9 (Homo sapiens) (UniProt P11712)	0.789% [at 11.4 µM] (inactive)

In the following, a different compound is considered.
I would be grateful if you could share the reported activity, negative = inhibition for "CNc1ncnc2ccc(-c3ccccc3CN(C)C)cc12" . -7.28% [at 2.29 µM] (inactive)

* * *

target: Cytochrome P450 2C9 (Homo sapiens); experiment: Cytochrome panel assay with activity outcomes; conditions: recombinant CYP, pro-luciferin dealkylation, luminescence, p450-cyp2c9; series mostly up to 57.1 µM
Among all 16,000 compounds or so, about 4,000 (25%) were called active. Not shown: some 26% with an inconclusive outcome. Calls come from the whole dose curve; as a rule, active = well fitted curve in the direction sought with a large enough effect; inconclusive = small, poorly fitted or top-dose-only effect, or effect the other way; inactive = no such curve, though single readings can be large or run the other way. Not all results are given here.
The categories you may choose from are 1 (active), -1 (inactive)

> print(dat)
                                   compound                 experimental.target  class.name
1  CC(NC(=O)CCSc1nc(-c2ccc3c(c2)OCO3)cc(C(F)(F)F)n1)c1ccccc1 (stereo unspecified)  Cytochrome P450 2C9 (Homo sapiens)           1
2  CCOC(=O)c1cc(-c2ccccc2)sc1NC(=O)C(C)(C)C  Cytochrome P450 2C9 (Homo sapiens)          -1
3  COC(=O)c1cc(-c2ccccc2)sc1NC(=O)CN1C(=O)c2ccccc2C1=O  Cytochrome P450 2C9 (Homo sapiens)           1
4  CN1CCN(c2nc(-c3ccccc3)cc(C(F)(F)F)n2)CC1  Cytochrome P450 2C9 (Homo sapiens)          -1
5               N[C@@H](CSS(=O)(=O)O)C(=O)O  Cytochrome P450 2C9 (Homo sapiens)           1
6      CCOCC(=O)Nc1cc(C(=O)Nc2ccccc2)ccc1Cl  Cytochrome P450 2C9 (Homo sapiens)           1
7    CC(C)OC(=O)C1=C2SCC(=O)N2C(N)=C(C#N)C1  Cytochrome P450 2C9 (Homo sapiens)           1
8  Cc1cc(/C=N\NC(=O)c2cccs2)c(C)n1-c1ccc2ncccc2c1  Cytochrome P450 2C9 (Homo sapiens)           1

# fetch the recorded call for "O=C(NCCc1ccc(Cl)cc1)Nc1cccc(Cl)c1" here 1

# fetch the recorded call for "CCOC(=O)c1[nH]c(COC(=O)CCOc2ccccc2OC)c(C(=O)OCC)c1C" here 1

# fetch the recorded call for "Cc1c(CCO)c(=O)n(C)n1C(=O)c1ccc(F)cc1" here -1

# fetch the recorded call for "Cc1ccc(COc2coc(CO)cc2=O)cc1" here -1

# fetch the recorded call for "COc1cccc(C(=O)N(C)c2nnc(-c3ccncc3)s2)c1" here 1

# fetch the recorded call for "COc1cccc(-c2cc3nc(-c4ccccc4)cc(N4CCC5(CC4)OCCO5)n3n2)c1" here 1

# fetch the recorded call for CCOC(=O)C1=C(C)NC2=C(C(=O)C(C(=O)OCC)C(c3ccc(OC)cc3)C2)C1c1ccccn1 (stereo unspecified) here 1

# fetch the recorded call for "O=c1oc2c(Cl)cc(Cl)cc2cc1-c1nnc(Nc2ccccc2F)s1" here -1

# fetch the recorded call for "O/N=C/c1cc(Cl)ccc1OCc1cccc2ccccc12" here 1
